target: T1, Human C5 (human, UniProt P01031 19-1676); assay: SPR, mAb captured by anti-hFc, 37C
T1 construct: The natural protein has a beta and an alpha chain; also called complement factor 5; complement component 5
Here, each record is paired with measured t½ data.
Return type: number; implicit unit min.

Check out these entries, answers already filled in.
INSERT INTO results (binder, unit_abbrev, readout_value) VALUES
  ('H4H12166P5 (antibody, human IgG4, V domains shown, human IgG4 Fc with S108P hinge mutation) VH: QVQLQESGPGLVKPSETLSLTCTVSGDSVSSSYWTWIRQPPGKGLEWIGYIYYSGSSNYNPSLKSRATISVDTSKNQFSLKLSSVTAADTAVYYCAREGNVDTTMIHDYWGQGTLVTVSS VL: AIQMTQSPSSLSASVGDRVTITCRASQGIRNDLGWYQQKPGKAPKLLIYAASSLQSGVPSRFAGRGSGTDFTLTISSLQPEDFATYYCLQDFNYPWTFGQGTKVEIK', 'min', 9),
  ('H4H12163P (antibody, human IgG4, V domains shown) VH: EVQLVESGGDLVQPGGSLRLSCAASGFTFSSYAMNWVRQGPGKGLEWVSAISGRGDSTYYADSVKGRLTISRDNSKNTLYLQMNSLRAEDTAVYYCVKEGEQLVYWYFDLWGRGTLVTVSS VL: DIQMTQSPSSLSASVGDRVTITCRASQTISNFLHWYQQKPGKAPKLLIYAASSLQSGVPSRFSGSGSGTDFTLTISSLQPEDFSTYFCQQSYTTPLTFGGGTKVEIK', 'min', 17);

Turning now to a further record.
Asked: Endpoint output: t½ of H4H12159P (antibody, human IgG4, V domains shown) VH: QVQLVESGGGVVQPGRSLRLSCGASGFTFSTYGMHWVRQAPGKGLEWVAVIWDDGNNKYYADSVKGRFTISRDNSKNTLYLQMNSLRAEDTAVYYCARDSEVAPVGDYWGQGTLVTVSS VL: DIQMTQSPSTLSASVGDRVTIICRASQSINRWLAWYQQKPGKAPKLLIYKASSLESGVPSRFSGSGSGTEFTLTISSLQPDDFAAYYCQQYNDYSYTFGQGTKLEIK . Value?
Given back: 108

meta.source: patent US20170355757A1
